Molecular target: β-secretase(BACE) (Homo sapiens, UniProt P56817)
Construct: purchased Panvera
Sequence (P56817 46-501): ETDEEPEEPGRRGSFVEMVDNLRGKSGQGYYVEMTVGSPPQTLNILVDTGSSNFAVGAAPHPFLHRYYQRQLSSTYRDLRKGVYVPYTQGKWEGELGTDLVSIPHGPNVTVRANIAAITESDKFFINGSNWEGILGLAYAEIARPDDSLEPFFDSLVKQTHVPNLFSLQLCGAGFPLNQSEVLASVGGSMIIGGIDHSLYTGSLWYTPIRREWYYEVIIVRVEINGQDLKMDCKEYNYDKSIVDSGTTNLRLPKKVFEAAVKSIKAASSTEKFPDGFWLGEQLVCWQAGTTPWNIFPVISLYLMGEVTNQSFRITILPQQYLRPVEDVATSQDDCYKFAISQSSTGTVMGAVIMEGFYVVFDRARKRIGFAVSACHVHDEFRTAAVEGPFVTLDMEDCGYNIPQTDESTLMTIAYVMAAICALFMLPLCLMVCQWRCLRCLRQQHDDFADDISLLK
Test: BACE FS1% Inhibition Assay
Assay type: biochemical
Details: 3 μM test compound; FS1 substrate; 3 µM

{"compound": "COc1ccccc1-c1ccc2c(c1)CN(Cc1cccc(C(=O)N(C)C3CCCCC3)c1)C(N)=N2", "% Inhibition (FS) 3 μM, %": 118}
{"compound": "CCCC(CNC(=O)C1CCCCC1)N1Cc2cc(Oc3ccccc3)ccc2N=C1N (stereo not drawn) [Compound 554]", "% Inhibition (FS) 3 μM, %": 42}
{"compound": "CN(C(=O)c1cccc(CN2Cc3cc(-c4ccccc4S(=O)(=O)NC(C)(C)C)ccc3N=C2N)c1)C1CCCCC1", "% Inhibition (FS) 3 μM, %": 79}
{"compound": "CCCC(CNC(=O)C1CCCCC1)N1Cc2cc(Oc3ccccc3)ccc2N=C1N (stereo not drawn) [Compound 601]", "% Inhibition (FS) 3 μM, %": 121}
{"compound": "CCC(c1cccc(C(=O)N(C)C2CCCCC2)c1)N1Cc2cc(Oc3ccccc3)ccc2N=C1N (stereo not drawn)", "% Inhibition (FS) 3 μM, %": 115}
{"compound": "CCCC(CNC(=O)C12CC3CC(CC(C3)C1)C2)N1Cc2cc(Oc3ccccc3)ccc2N=C1N (stereo not drawn) [Compound 555]", "% Inhibition (FS) 3 μM, %": 46}
{"compound": "NC1=Nc2ccc(-c3ccc(F)cc3)cc2CN1CCNC(=O)C1CCCCC1 [Compound 623]", "% Inhibition (FS) 3 μM, %": 82}
{"compound": "CN(C(=O)c1ccc2c(c1)C(N1Cc3cc(Oc4ccccc4)ccc3N=C1N)c1ccccc1-2)C1CCCCC1 (stereo not drawn)", "% Inhibition (FS) 3 μM, %": 48}
{"compound": "CCCC(CNC(=O)C12CC3CC(CC(C3)C1)C2)N1Cc2cc(Oc3ccccc3)ccc2N=C1N (stereo not drawn) [Compound 602]", "% Inhibition (FS) 3 μM, %": 121}
{"compound": "COc1ccccc1-c1ccc2c(c1)CN(CCNC(=O)C1CCCCC1)C(N)=N2", "% Inhibition (FS) 3 μM, %": 95}
{"compound": "NC1=Nc2ccc(-c3ccc(F)cc3)cc2CN1CCNC(=O)C1CCCCC1 [Compound 624]", "% Inhibition (FS) 3 μM, %": 78}
{"compound": "NC1=Nc2ccc(Oc3ccccc3)cc2CN1CCC(=O)NC1C2CC3CC(C2)CC1C3 (stereo not drawn)", "% Inhibition (FS) 3 μM, %": 121}

---

Molecular target: β-secretase(BACE) (Homo sapiens)
Construct: purchased Panvera
Test: BACE FS1% Inhibition Assay
Type: biochemical
Settings: 1 μM test compound; FS1 substrate

{"molecule": "CCc1ccccc1Sc1ccc2c(c1)CN(Cc1cccc(C(=O)N(C)C3CCCCC3)c1)C(N)=N2", "% Inhibition (FS) 1 μM": "<30%"}
{"molecule": "CCCCCOc1ccc2c(c1)CN(Cc1cccc(C(=O)N(C)C3CCCCC3)c1)C(N)=N2", "% Inhibition (FS) 1 μM": "<30%"}
{"molecule": "NC1=Nc2ccc(-c3cccc(C(F)(F)F)c3)cc2CN1CCNC(=O)Cc1ccccc1", "% Inhibition (FS) 1 μM": "<30%"}
{"molecule": "NC1=Nc2ccc(Oc3ccccc3)cc2CN1Cc1cccc(C(=O)N2CCCCC2)c1", "% Inhibition (FS) 1 μM": "39%"}
{"molecule": "CN(C(=O)c1cccc(CN2Cc3cc(OCC4CCCC4)ccc3N=C2N)c1)C1CCCCC1", "% Inhibition (FS) 1 μM": "<30%"}
{"molecule": "CN(C(=O)c1cccc(C(CC2CCCCC2)N2Cc3cc(Oc4ccccc4)ccc3N=C2N)c1)C1CCCCC1 (stereo not shown)", "% Inhibition (FS) 1 μM": "<30%"}
{"molecule": "CN(C(=O)c1cccc(CN2Cc3cc(Nc4ccc5ccccc5c4)ccc3N=C2N)c1)C1CCCCC1", "% Inhibition (FS) 1 μM": "37%"}
{"molecule": "CC(C)(C)OC(=O)NCc1cccc(CN2Cc3cc(Oc4ccccc4)ccc3N=C2N)c1", "% Inhibition (FS) 1 μM": "<30%"}
{"molecule": "NC1=Nc2ccc(Oc3ccccc3)cc2CN1C(CNC(=O)CC1CCCC1)C1CCCCC1 (stereo not shown)", "% Inhibition (FS) 1 μM": "108%"}
{"molecule": "CC(C)N(C(=O)CCN1Cc2cc(Oc3ccccc3)ccc2N=C1N)C(C)C", "% Inhibition (FS) 1 μM": "<30%"}
{"molecule": "CSc1ccc(Sc2ccc3c(c2)CN(Cc2cccc(C(=O)N(C)C4CCCCC4)c2)C(N)=N3)cc1", "% Inhibition (FS) 1 μM": "<30%"}
{"molecule": "CCCCCC(CCC(=O)NC1CCCCCC1)N1Cc2cc(Oc3ccccc3)ccc2N=C1N (stereo not shown)", "% Inhibition (FS) 1 μM": "<30%"}
{"molecule": "CC(C)CCC(=O)N1CCCC(N2Cc3cc(Oc4ccccc4)ccc3N=C2N)C1 (stereo not shown)", "% Inhibition (FS) 1 μM": "31%"}
{"molecule": "CC(=O)Nc1ccc(C(=O)NCCN2Cc3cc(-c4cccc(CO)c4)ccc3N=C2N)cc1", "% Inhibition (FS) 1 μM": "<30%"}
{"molecule": "CN(C(=O)c1cccc(CN2Cc3cc(Oc4ccccc4C4CCCC4)ccc3N=C2N)c1)C1CCCCC1", "% Inhibition (FS) 1 μM": "<30%"}
{"molecule": "CN(C)c1ccc(C(=O)NCCN2Cc3cc(Oc4ccccc4)ccc3N=C2N)cc1", "% Inhibition (FS) 1 μM": "<30%"}

---

Target: β-secretase(BACE) (Homo sapiens)
Construct: purchased Panvera
Experiment: BACE Assay-2 (FS1 substrate, IC50 and Ki)
Assay type: biochemical
Conditions: procedure of Example 159, FS1 substrate; read-out: Ki μM (159)

{"molecule": "CN(C(=O)CC[C@@H](CO)N1Cc2cc(Oc3ccccc3)ccc2N=C1N)C1CCCCC1", "Ki (µM)": 0.16}
{"molecule": "CC(C)OC(=O)NCCN1Cc2cc(Oc3ccccc3)ccc2N=C1N", "Ki (µM)": 0.2}
{"molecule": "NC1=Nc2ccc(-c3c(F)cccc3F)cc2CN1CCNC(=O)C1CCCCC1", "Ki (µM)": 0.13}
{"molecule": "COc1ccccc1-c1ccc2c(c1)CN(CCC(=O)NC1CCCCC1)C(N)=N2", "Ki (µM)": 0.076}
{"molecule": "COC1CCCC(C(=O)NCCN2Cc3cc(-c4ccccc4Cl)ccc3N=C2N)C1 (stereo not shown)", "Ki (µM)": 0.13}
{"molecule": "Cc1noc(C)c1-c1ccc2c(c1)CN(Cc1cccc(C(=O)N(C)C3CCCCC3)c1)C(N)=N2", "Ki (µM)": 0.28}
{"molecule": "CCCC(CNC(=O)C1CCCCC1)N1Cc2cc(Oc3ccccc3)ccc2N=C1N (stereo not shown) [Compound 601]", "Ki (µM)": 0.027}
{"molecule": "COc1cccc(-c2ccc3c(c2)CN(Cc2cccc(C(=O)N(C)C4CCCCC4)c2)C(N)=N3)c1", "Ki (µM)": 0.28}
{"molecule": "CN(C(=O)c1cccc(CN2Cc3cc(Nc4ccccc4)ccc3N=C2N)c1)C1CCCCC1", "Ki (µM)": 0.86}
{"molecule": "CC(C)(C)OC[C@@H](NC(=O)CC[C@@H](C1CCOCC1)N1Cc2cc(Oc3ccccc3)ccc2N=C1N)C(=O)O", "Ki (µM)": 0.003}
{"molecule": "COC(=O)[C@@H](COCc1ccccc1)N(C)C(=O)CC[C@@H](C1CCCCC1)N1Cc2cc(Oc3ccccc3)ccc2N=C1N", "Ki (µM)": 0.045}
{"molecule": "NC1=Nc2ccc(Oc3ccccc3)cc2CN1C(CNC(=O)CC1CCCC1)C1CCCCC1 (stereo not shown)", "Ki (µM)": 0.05}
{"molecule": "NC1=Nc2ccc(Oc3ccccc3)cc2CN1[C@@H](CCC(=O)N[C@H](CO)C(=O)O)C1CCOCC1", "Ki (µM)": 0.028}
{"molecule": "CCCCC(CC)C(=O)NCCN1Cc2cc(Oc3ccccc3)ccc2N=C1N (stereo not shown)", "Ki (µM)": 0.17}
{"molecule": "COC(=O)[C@H](COCc1ccccc1)NC(=O)CC[C@@H](C1CCOCC1)N1Cc2cc(Oc3ccccc3)ccc2N=C1N", "Ki (µM)": 0.198}
{"molecule": "CCCC(CNC(=O)C1CCCCC1)N1Cc2cc(Oc3ccccc3)ccc2N=C1N (stereo not shown) [Compound 343]", "Ki (µM)": 0.065}

---

Listing of entries alongside the reported % Inhibition (FS) 1 μM.
Biological target: β-secretase(BACE) (Homo sapiens, UniProt P56817)
Construct: purchased Panvera
Test: BACE FS1% Inhibition Assay
Format: biochemical
Details: 1 μM test compound; FS1 substrate
readout.name: % Inhibition (FS) 1 μM

{"compound": "CN(C(=O)c1cccc(CN2Cc3cc(-c4ccc(C(N)=O)cc4)ccc3N=C2N)c1)C1CCCCC1", "assayed.system": "β-secretase(BACE) (Homo sapiens, UniProt P56817)", "readout.name": "% Inhibition (FS) 1 μM", "assay.value": "<30%"}
{"compound": "Cc1cc(C(=O)NCCN2Cc3cc(-c4cccc(CO)c4)ccc3N=C2N)c(C)o1", "assayed.system": "β-secretase(BACE) (Homo sapiens, UniProt P56817)", "readout.name": "% Inhibition (FS) 1 μM", "assay.value": "<30%"}
{"compound": "Cc1cccc(Sc2ccc3c(c2)CN(Cc2cccc(C(=O)N(C)C4CCCCC4)c2)C(N)=N3)c1", "assayed.system": "β-secretase(BACE) (Homo sapiens, UniProt P56817)", "readout.name": "% Inhibition (FS) 1 μM", "assay.value": "106%"}
{"compound": "COc1ccc(C)cc1-c1ccc2c(c1)CN(CCNC(=O)C1CCCCC1)C(N)=N2", "assayed.system": "β-secretase(BACE) (Homo sapiens, UniProt P56817)", "readout.name": "% Inhibition (FS) 1 μM", "assay.value": "<30%"}
{"compound": "CCCC=Cc1ccc2c(c1)CN(CCNC(=O)c1cc(C)oc1C)C(N)=N2", "assayed.system": "β-secretase(BACE) (Homo sapiens, UniProt P56817)", "readout.name": "% Inhibition (FS) 1 μM", "assay.value": "<30%"}
{"compound": "CCc1ccccc1-c1ccc2c(c1)CN(Cc1cccc(C(=O)N(C)C3CCCCC3)c1)C(N)=N2", "assayed.system": "β-secretase(BACE) (Homo sapiens, UniProt P56817)", "readout.name": "% Inhibition (FS) 1 μM", "assay.value": "<30%"}
{"compound": "CC(C)C(CNC(=O)C12CC3CC(CC(C3)C1)C2)N1Cc2cc(Oc3ccccc3)ccc2N=C1N (centres unmarked)", "assayed.system": "β-secretase(BACE) (Homo sapiens, UniProt P56817)", "readout.name": "% Inhibition (FS) 1 μM", "assay.value": "118%"}
{"compound": "NC1=Nc2ccc(Oc3ccccc3)cc2CN1C(CC(=O)NC1CCCCC1)C1CCCCC1 (centres unmarked)", "assayed.system": "β-secretase(BACE) (Homo sapiens, UniProt P56817)", "readout.name": "% Inhibition (FS) 1 μM", "assay.value": "<30%"}
